Please respond with reported IC50 for every item in the list.
- target-or-system: human NaV subtype, like NaV 1.7 (Homo sapiens, UniProt Q15858)
- Sequence (Q15858 whole entry): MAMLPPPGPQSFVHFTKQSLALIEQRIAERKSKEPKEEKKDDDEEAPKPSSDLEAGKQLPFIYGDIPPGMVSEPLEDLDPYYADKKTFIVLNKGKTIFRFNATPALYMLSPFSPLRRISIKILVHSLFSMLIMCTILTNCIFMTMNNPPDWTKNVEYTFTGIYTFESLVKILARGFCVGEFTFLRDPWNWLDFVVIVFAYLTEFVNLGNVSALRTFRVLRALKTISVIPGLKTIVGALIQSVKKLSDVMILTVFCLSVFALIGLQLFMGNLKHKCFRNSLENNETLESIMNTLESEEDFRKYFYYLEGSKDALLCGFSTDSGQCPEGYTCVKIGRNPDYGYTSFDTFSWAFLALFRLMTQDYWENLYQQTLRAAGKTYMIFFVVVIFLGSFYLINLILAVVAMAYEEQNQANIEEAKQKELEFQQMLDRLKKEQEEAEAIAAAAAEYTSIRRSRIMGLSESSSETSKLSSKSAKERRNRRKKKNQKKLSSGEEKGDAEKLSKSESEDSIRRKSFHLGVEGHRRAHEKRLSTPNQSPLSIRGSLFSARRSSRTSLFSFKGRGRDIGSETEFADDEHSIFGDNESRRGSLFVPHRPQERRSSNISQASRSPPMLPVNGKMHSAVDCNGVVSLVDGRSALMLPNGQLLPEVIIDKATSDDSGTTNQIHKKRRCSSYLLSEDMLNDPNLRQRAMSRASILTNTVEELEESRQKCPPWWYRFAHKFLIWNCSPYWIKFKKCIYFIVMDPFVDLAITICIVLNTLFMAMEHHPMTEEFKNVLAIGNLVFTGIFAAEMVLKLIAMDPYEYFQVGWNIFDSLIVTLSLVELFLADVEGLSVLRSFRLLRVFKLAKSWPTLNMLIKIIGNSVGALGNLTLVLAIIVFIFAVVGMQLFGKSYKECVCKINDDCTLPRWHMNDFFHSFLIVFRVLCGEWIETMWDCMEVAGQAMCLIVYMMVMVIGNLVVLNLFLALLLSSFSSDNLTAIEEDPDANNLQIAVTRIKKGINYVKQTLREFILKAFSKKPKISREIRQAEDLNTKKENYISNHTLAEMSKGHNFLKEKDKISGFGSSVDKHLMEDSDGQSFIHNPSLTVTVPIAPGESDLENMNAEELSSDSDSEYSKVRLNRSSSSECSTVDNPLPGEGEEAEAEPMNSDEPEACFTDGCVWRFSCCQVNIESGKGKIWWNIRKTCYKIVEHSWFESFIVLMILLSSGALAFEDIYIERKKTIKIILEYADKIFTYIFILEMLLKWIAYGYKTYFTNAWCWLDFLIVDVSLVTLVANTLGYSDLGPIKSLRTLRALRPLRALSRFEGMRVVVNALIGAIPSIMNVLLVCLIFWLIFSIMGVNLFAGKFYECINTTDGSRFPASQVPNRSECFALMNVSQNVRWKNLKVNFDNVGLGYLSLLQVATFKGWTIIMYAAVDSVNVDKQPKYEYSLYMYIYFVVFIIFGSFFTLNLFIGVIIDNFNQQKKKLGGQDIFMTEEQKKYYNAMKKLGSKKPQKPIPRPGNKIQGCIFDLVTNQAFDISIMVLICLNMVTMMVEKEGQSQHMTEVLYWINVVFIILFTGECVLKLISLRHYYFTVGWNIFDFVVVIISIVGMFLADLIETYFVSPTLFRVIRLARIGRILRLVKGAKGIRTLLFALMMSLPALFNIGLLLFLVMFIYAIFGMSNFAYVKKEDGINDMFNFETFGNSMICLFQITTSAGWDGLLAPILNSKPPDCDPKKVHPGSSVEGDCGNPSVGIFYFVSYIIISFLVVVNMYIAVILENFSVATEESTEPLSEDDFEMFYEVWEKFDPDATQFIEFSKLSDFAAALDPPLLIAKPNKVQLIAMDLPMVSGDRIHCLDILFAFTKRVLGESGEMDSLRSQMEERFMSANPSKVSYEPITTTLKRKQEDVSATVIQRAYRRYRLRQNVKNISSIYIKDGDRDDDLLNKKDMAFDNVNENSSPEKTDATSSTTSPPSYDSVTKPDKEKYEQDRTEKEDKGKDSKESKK
- experiment: E-VIPR optical membrane potential assay with electrical stimulation
- Type: cell-based
- applied-conditions: active against one or more sodium channels; Table 3 does not name the assay or NaV subtype; read-out: Binned Activity Data (IC50)

*Q* Supply measured IC50 of `COc1ccc(C(=O)N2CCC3(CC2)c2cc(C(=O)C(F)(F)F)cn2C(C)(C)CN3C)c(F)c1` in your reply.
*A* 2 to 5 µM

*Q* Supply measured IC50 of `Cc1cc(C(=O)N2CCC3(CC2)c2c(Br)cc(C(F)(F)F)n2CCN3C)ccc1OC(C)C` in your reply.
*A* ≤ 2 µM

*Q* Supply measured IC50 of `CCCOc1ccc(C(=O)N2CCC3(CC2)c2ccc(C(F)(F)F)n2CCN3C)cc1OC` in your reply.
*A* ≤ 2 µM

*Q* Supply measured IC50 of `COCC#Cc1ccc(C(=O)N2CCC3(CC2)c2ccc(Cl)n2CCN3C)cc1F` in your reply.
*A* > 5 µM

*Q* Supply measured IC50 of `CCCCCc1ccc(C(=O)N2CCC3(CC2)c2ccc(Cl)n2CCN3C)cc1` in your reply.
*A* ≤ 2 µM

*Q* Supply measured IC50 of `CC(C)(O)c1ccc(C(=O)N2CCC3(CC2)c2ccc(C(F)(F)F)n2CCN3CC(F)F)cc1` in your reply.
*A* ≤ 2 µM

*Q* Supply measured IC50 of `Cc1cc(C(=O)N2CCC3(CC2)c2ccc(CC(F)(F)F)n2CCN3C)ccc1OC(C)C` in your reply.
*A* ≤ 2 µM

*Q* Supply measured IC50 of `Cc1cc(C(F)F)n2ncc(C(=O)N3CCC4(CC3)NCCn3c(C(F)(F)F)ccc34)c2n1` in your reply.
*A* 2 to 5 µM

###

- target-or-system: human NaV subtype, like NaV 1.7 (Homo sapiens, UniProt Q15858)
- experiment: E-VIPR optical membrane potential assay with electrical stimulation
- applied-conditions: active against one or more sodium channels; Table 3 does not name the assay or NaV subtype; read-out: Binned Activity Data (IC50)
pIC50: −log10 of the molar value.
Please respond with reported pIC50 for every item in the list.

*Q* Supply measured pIC50 of `COc1ccc(C(=O)N2CCC3(CC2)c2ccc(C(=O)C(F)(F)F)n2C(C)(C)CN3C)cc1C` in your reply.
*A* 5.30 to 5.70

*Q* Supply measured pIC50 of `CC(C)Oc1ccc(C(=O)N2CCC3(CC2)c2ccc(Cl)n2CCN3C)cc1C#N` in your reply.
*A* 5.30 to 5.70

*Q* Supply measured pIC50 of `CC(C)Oc1ccc(C(=O)N2CCC3(CC2)c2ccc(Cl)n2CCN3C)cc1C(F)(F)F` in your reply.
*A* ≥ 5.70

*Q* Supply measured pIC50 of `CN1CCn2c(C(=O)C(F)(F)F)ccc2C12CCN(C(=O)c1ccc(OC(F)(F)F)cc1)CC2` in your reply.
*A* ≥ 5.70

*Q* Supply measured pIC50 of `CC(C)Oc1ccc(C(=O)N2CCC3(CC2)c2c(Cl)cc(C(F)(F)F)n2CCN3C)c(F)c1` in your reply.
*A* ≥ 5.70

*Q* Supply measured pIC50 of `CN1CCn2c(C(F)(F)F)ccc2C12CCN(C(=O)c1ccc(OCC(C)(C)O)cc1)CC2` in your reply.
*A* 5.30 to 5.70

*Q* Supply measured pIC50 of `CCc1ccc(C(=O)N2CCC3(CC2)c2ccc(C(=O)C(F)(F)F)n2CCN3C)nc1` in your reply.
*A* < 5.30

*Q* Supply measured pIC50 of `Cc1cc(C(=O)N2CCC3(CC2)c2ccc(C(F)(F)F)n2CCN3C(=O)N(C)C)ccc1C(C)(C)O` in your reply.
*A* < 5.30

###

- target-or-system: human NaV subtype, like NaV 1.7 (Homo sapiens, UniProt Q15858)
- experiment: E-VIPR optical membrane potential assay with electrical stimulation
- applied-conditions: active against one or more sodium channels; Table 3 does not name the assay or NaV subtype; read-out: Binned Activity Data (IC50)
value-type: IC50

*Q* Supply measured IC50 of `COc1cc(C(=O)N2CCC3(CC2)c2ccc(C(F)(F)F)n2CCN3C)ccc1OCCOC(F)(F)F` in your reply.
*A* ≤ 2 µM

*Q* Supply measured IC50 of COc1ccc(C(=O)N2CCC3(CC2)NCC(C)n2c(C(=O)C(F)(F)F)ccc23)cc1Cl (stereo not shown) in your reply.
*A* ≤ 2 µM

*Q* Supply measured IC50 of `CN1CCn2c(C(=O)C(C)(C)C)ccc2C12CCN(C(=O)c1ccc(S(=O)(=O)C(C)(C)C)cc1)CC2` in your reply.
*A* ≤ 2 µM

*Q* Supply measured IC50 of `CN1CCn2c(C(=O)C(F)(F)F)ccc2C12CCN(C(=O)c1ccc(S(=O)(=O)N(C)c3nccs3)cc1)CC2` in your reply.
*A* ≤ 2 µM

*Q* Supply measured IC50 of `CN1CCn2c(C(F)(F)F)ccc2C12CCN(C(=O)c1cccnc1N1CCC(F)(F)C1)CC2` in your reply.
*A* 2 to 5 µM

*Q* Supply measured IC50 of `CCc1ccc(C(=O)N2CCC3(CC2)c2ccc(C(F)(F)F)n2CCN3C)cc1OC` in your reply.
*A* ≤ 2 µM

*Q* Supply measured IC50 of `CC(=O)c1ccc2n1CCN(C)C21CCN(C(=O)c2ccc(-c3ccccc3)c(C)c2)CC1` in your reply.
*A* ≤ 2 µM

*Q* Supply measured IC50 of `CC(=O)c1ccc2n1CCN(C)C21CCN(C(=O)c2ccc(OCC(C)(C)O)c(C)c2)CC1` in your reply.
*A* 2 to 5 µM

*Q* Supply measured IC50 of `CC(=O)c1ccc2n1CCN(C)C21CCN(C(=O)c2ccc(OC(C)C)c(Cl)c2)CC1` in your reply.
*A* ≤ 2 µM

*Q* Supply measured IC50 of `COc1cc(C(=O)N2CCC3(CC2)c2ccc(C(F)(F)F)n2CCN3C=O)ccc1OC(C)C` in your reply.
*A* > 5 µM

*Q* Supply measured IC50 of `CCCCc1ccc(C(=O)N2CCC3(CC2)c2ccc(C(C)=O)n2CCN3C)cc1` in your reply.
*A* ≤ 2 µM

*Q* Supply measured IC50 of `CC(=O)c1ccc2n1CCN(C)C21CCN(C(=O)c2ccc(OC(C)C)c(CO)c2)CC1` in your reply.
*A* > 5 µM

*Q* Supply measured IC50 of `CC(=O)c1ccc2n1CCN(C)C21CCN(C(=O)c2ccc(C(C)C)cc2)CC1` in your reply.
*A* > 5 µM

*Q* Supply measured IC50 of `COc1ccc(C(=O)N2CCC3(CC2)c2ccc(C(=O)C4CC4)n2CCN3C)cc1Cl` in your reply.
*A* ≤ 2 µM

*Q* Supply measured IC50 of `COc1cc(C(=O)N2CCC3(CC2)c2ccc(C(F)(F)F)n2CCN3C)ccc1OC(C)(C)C` in your reply.
*A* ≤ 2 µM

*Q* Supply measured IC50 of `CC(=O)c1ccc2n1CCN(C)C21CCN(C(=O)c2ccc(COc3ccccc3)cc2)CC1` in your reply.
*A* ≤ 2 µM

###

- target-or-system: human NaV subtype, like NaV 1.7 (Homo sapiens, UniProt Q15858)
- experiment: E-VIPR optical membrane potential assay with electrical stimulation
- applied-conditions: active against one or more sodium channels; Table 3 does not name the assay or NaV subtype; read-out: Binned Activity Data (IC50)
pIC50: −log10 of the molar value.
value-type: pIC50

*Q* Supply measured pIC50 of COc1cc(C(=O)N2CCC3(CC2)c2ccc(C(F)(F)F)n2CCN3CC(F)(F)F)ccc1OC(C)C [Compound 59] in your reply.
*A* ≥ 5.70

*Q* Supply measured pIC50 of COc1cc(C(=O)N2CCC3(CC2)c2ccc(C(=O)C(F)(F)F)n2C(C)(C)CN3C)ccc1OC(C)C [Compound 126] in your reply.
*A* 5.30 to 5.70

*Q* Supply measured pIC50 of CC1CCN(S(=O)(=O)c2ccc(C(=O)N3CCC4(CC3)c3ccc(C(=O)C(F)(F)F)n3CCN4C)cc2)CC1 [Compound 600] in your reply.
*A* ≥ 5.70

*Q* Supply measured pIC50 of Cc1cc(C(=O)N2CCC3(CC2)NCCn2c(C(F)(F)F)ccc23)ccc1OC(C)C [Compound 356] in your reply.
*A* ≥ 5.70

*Q* Supply measured pIC50 of CN1CCn2c(C(=O)C(F)(F)F)ccc2C12CCN(C(=O)c1ccc(S(=O)(=O)NC3CC3)cc1)CC2 [Compound 33] in your reply.
*A* ≥ 5.70

*Q* Supply measured pIC50 of CN1CCn2c(C(=O)C(F)(F)F)ccc2C12CCN(C(=O)c1ccc(F)c(O)c1)CC2 [Compound 720] in your reply.
*A* < 5.30

*Q* Supply measured pIC50 of Cc1cc(C(=O)N2CCC3(CC2)c2ccc(C(=O)C4(C)CC4)n2CCN3C)ccc1O [Compound 161] in your reply.
*A* ≥ 5.70

*Q* Supply measured pIC50 of CC(C)Oc1ccc(C(=O)N2CCC3(CC2)c2ccc(C(F)(F)F)n2CCN3C)c(F)c1 [Compound 546] in your reply.
*A* ≥ 5.70

*Q* Supply measured pIC50 of CC(C)CCOc1ccc(C(=O)N2CCC3(CC2)NCC(C)n2c(C(=O)C(F)(F)F)ccc23)nc1 (stereo not drawn) [Compound 611] in your reply.
*A* ≥ 5.70

*Q* Supply measured pIC50 of COCCOc1ccc(C(=O)N2CCC3(CC2)c2ccc(C(=O)C(F)(F)F)n2CCN3C)cc1OC [Compound 640] in your reply.
*A* 5.30 to 5.70

*Q* Supply measured pIC50 of COc1ccc(C(=O)N2CCC3(CC2)c2ccc(C(=O)C(F)(F)F)n2C(C)CN3C)cc1C(F)(F)F (stereo not drawn) [Compound 240] in your reply.
*A* ≥ 5.70

*Q* Supply measured pIC50 of CN1CCn2c(ccc2C(F)(F)C(F)(F)F)C12CCN(C(=O)c1ccc(S(=O)(=O)C(C)(C)C)cc1)CC2 [Compound 464] in your reply.
*A* ≥ 5.70

*Q* Supply measured pIC50 of CN1CC(C)(C)n2c(C(=O)C(F)(F)F)ccc2C12CCN(C(=O)c1ccc(C(C)(C)O)c(F)c1)CC2 [Compound 748] in your reply.
*A* < 5.30

*Q* Supply measured pIC50 of CC(=O)c1ccc2n1CCN(C)C21CCN(C(=O)c2ccc(OC(C)C)c(C(F)(F)F)c2)CC1 [Compound 732] in your reply.
*A* ≥ 5.70

*Q* Supply measured pIC50 of CN1CCn2c(Cl)ccc2C12CCN(C(=O)c1cccc3cccnc13)CC2 [Compound 679] in your reply.
*A* 5.30 to 5.70
